system: SF-539 CNS; experiment: NCI tumour cell line growth inhibition, 48 h

# compound, GI50
records = [
    ("CS(=O)(=O)c1ccc(Cl)c([N+](=O)[O-])c1", "19.2 µM"),
    ("O=C(Nc1ccc(OC(F)(F)F)cc1)c1sccc1NCc1ccnc2ccccc12", "4.3 µM"),
    ("COc1cc(Nc2ccnc(N3CCN(c4ccnc5cc(Cl)ccc45)CC3)n2)cc(OC)c1", "1.25 µM"),
    ("COc1ccc(Cl)cc1Nc1nc(C(F)(F)F)ccc1C(=O)NN", "6.52 µM"),
    ("COc1ccc(-c2cc(-c3ccc(Cl)cc3)c(C#N)c(=O)n2CCCCC(=O)Nc2ccccc2N)cc1", "19.4 µM"),
    ("COc1cc(/C=C2\\CN(C)CC3=C2Nc2nc(SC)[nH]c(=O)c2C3c2cc(OC)c(OC)c(OC)c2)cc(OC)c1OC (configuration not stated)", "3.64 µM"),
    ("Nc1cc(N)c2nc(-c3ccccc3)c(Oc3ccc(F)cc3)nc2c1", "18.1 µM"),
]
